Cited source: patent US20090192298A1

Assay: Spectral properties (absorbance, fluorescence, quantum yield) of sulfonated BODIPY dyes 6, Table 1
Type: physicochemical
Conditions: solvent MeOH
readout_label: Imax abs (nm)
Express your answer in nm, writing the number without its unit.

Below, 4 molecules whose answers are already recorded.
# molecule, reported_measurement
records = [
    ("Cc1cc(C)n2c1C=C1C(=O)N(C)C(c3ccccc3)=[N+]1[B-]2(F)F [6b]", 490),
    ("Cc1c(S(=O)(=O)[O-])c(C)n2c1C=C1C(=O)N(C)C(c3ccc(I)cc3)=[N+]1[B-]2(F)F.[Na+] [6g]", 488),
    ("CC1=[N+]2C(=Cc3c(C)cc(C)n3[B-]2(F)F)C(=O)N1C [6a]", 477),
    ("Cc1cc(C)n2c1C=C1C(=O)NC(c3ccccc3)=[N+]1[B-]2(F)F [6e]", 495),
]

Quick one: Imax abs for Cc1cc(C)n2c1C=C1C(=O)N(C)C(c3ccc(I)cc3)=[N+]1[B-]2(F)F [6c] ?
492
